- Test system: A549
- assay.overview: Cytotoxicity against human A549 cells assessed as cell death at 100 ug/ml by MTT assay
- Assay type: functional
Heads up, the class ranges for Activity are low = under 10%, middle = from 10% up to 20%, high = 20% and over

CN1C(=O)[C@@]2(c3cc(F)ccc31)N(C)C[C@](C#N)(C(=O)c1c[nH]c3ccccc13)[C@]21C(=O)Nc2ccccc21    middle
C=CCN1C(=O)[C@@]2(c3ccccc31)N(C)C[C@](C#N)(C(=O)c1c[nH]c3ccccc13)[C@]21C(=O)Nc2ccccc21    low
C#CCN1C(=O)[C@@]2(c3ccccc31)N(C)C[C@](C#N)(C(=O)c1c[nH]c3ccccc13)[C@]21C(=O)Nc2ccccc21    high
CCCCCCN1C(=O)[C@@]2(c3ccccc31)N(C)C[C@](C#N)(C(=O)c1c[nH]c3ccccc13)[C@]21C(=O)Nc2ccccc21    high
CN1C(=O)[C@@]2(c3cc(Br)ccc31)N(C)C[C@](C#N)(C(=O)c1c[nH]c3ccccc13)[C@]21C(=O)Nc2ccccc21    low
Cc1ccc2c(c1)[C@]1(C(=O)N2C)N(C)C[C@](C#N)(C(=O)c2c[nH]c3ccccc23)[C@]12C(=O)Nc1ccccc12    middle
CN1C(=O)[C@@]2(c3cc([N+](=O)[O-])ccc31)N(C)C[C@](C#N)(C(=O)c1c[nH]c3ccccc13)[C@]21C(=O)Nc2ccccc21    high
CCN1C(=O)[C@@]2(c3ccccc31)N(C)C[C@](C#N)(C(=O)c1c[nH]c3ccccc13)[C@]21C(=O)Nc2ccccc21    middle
CN1C[C@](C#N)(C(=O)c2c[nH]c3ccccc23)[C@]2(C(=O)Nc3ccccc32)[C@@]12C(=O)Nc1ccccc12    high
CN1C(=O)[C@@]2(c3ccccc31)N(C)C[C@](C#N)(C(=O)c1c[nH]c3ccccc13)[C@]21C(=O)Nc2ccccc21    low
CN1C[C@](C#N)(C(=O)c2c[nH]c3ccccc23)[C@]2(C(=O)Nc3ccccc32)[C@@]12C(=O)Nc1ccc(Br)cc12    low
CN1C(=O)[C@@]2(c3cc(Cl)ccc31)N(C)C[C@](C#N)(C(=O)c1c[nH]c3ccccc13)[C@]21C(=O)Nc2ccccc21    middle
CN1C[C@](C#N)(C(=O)c2c[nH]c3ccccc23)[C@]2(C(=O)Nc3ccccc32)[C@@]12C(=O)Nc1ccc([N+](=O)[O-])cc12    high
CCOC(=O)CN1C(=O)[C@@]2(c3ccccc31)N(C)C[C@](C#N)(C(=O)c1c[nH]c3ccccc13)[C@]21C(=O)Nc2ccccc21    high
